Biological target: T1, human C5 (human, UniProt P01031 19-673; P01031 678-1676, Beta and alpha chains are disulfide-linked and the protein is glycosylated.)
T1 construct: Either in-house recombinant C5 or plasma derived C5 (CALBIOCHEM) was used; also called recombinant human C5; plasma derived human C5
Test: Biacore, captured antibody, pH 7.4, 37 C;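 note: biacore binding response of anti-C5 antibody light chain variants captured on chip with human C5 injected, ACES running buffer containing 1.2 mM CaCl₂, parent light chain antibody set to 100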
Measured % binding (parent = 100), listed per entry.
// unit must come after the numeric part

Completed entries (count: 9):
CFP0021 21L 94F (antibody, V domains shown) VH: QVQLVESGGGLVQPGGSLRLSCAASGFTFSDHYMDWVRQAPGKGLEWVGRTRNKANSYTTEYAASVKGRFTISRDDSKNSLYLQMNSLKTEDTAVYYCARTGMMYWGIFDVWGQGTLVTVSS VL: DIQMTQSPSSLSASVGDRVTITCRASQSIEDDLAWYQQKPGKAPKLLIYHASTLQSGVPSRFSGSGSGTDFTLTISSLQPEDFATYYCQQHDSFPLTFGQGTKVEIK	0.9%
CFP0015 15L 32Q (antibody, V domains shown) VH: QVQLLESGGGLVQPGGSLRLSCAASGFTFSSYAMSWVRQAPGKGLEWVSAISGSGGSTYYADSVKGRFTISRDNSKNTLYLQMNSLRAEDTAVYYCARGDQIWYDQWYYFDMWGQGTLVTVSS VL: DIQMTQSPSSLSASVGDRVTITCRASQSIEDQLAWYQQKPGKAPKLLIYEASNLQSGVPSRFSGSGSGTDFTLTISSLQPEDFATYYCQQYDSSPLTFGQGTKVEIK	328%
CFP0015 15L 30D (antibody, V domains shown) VH: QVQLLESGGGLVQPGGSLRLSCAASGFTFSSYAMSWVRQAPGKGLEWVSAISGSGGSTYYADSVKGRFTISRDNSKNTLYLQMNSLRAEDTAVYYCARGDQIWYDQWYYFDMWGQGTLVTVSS VL: DIQMTQSPSSLSASVGDRVTITCRASQSIDDDLAWYQQKPGKAPKLLIYEASNLQSGVPSRFSGSGSGTDFTLTISSLQPEDFATYYCQQYDSSPLTFGQGTKVEIK	59.9%
CFP0015 15L 92S (antibody, V domains shown) VH: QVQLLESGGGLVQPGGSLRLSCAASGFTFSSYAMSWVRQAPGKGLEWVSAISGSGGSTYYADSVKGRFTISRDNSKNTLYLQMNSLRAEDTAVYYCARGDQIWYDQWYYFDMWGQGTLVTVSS VL: DIQMTQSPSSLSASVGDRVTITCRASQSIEDDLAWYQQKPGKAPKLLIYEASNLQSGVPSRFSGSGSGTDFTLTISSLQPEDFATYYCQQYSSSPLTFGQGTKVEIK	51.3%
CFP0011 11L 91R (antibody, V domains shown) VH: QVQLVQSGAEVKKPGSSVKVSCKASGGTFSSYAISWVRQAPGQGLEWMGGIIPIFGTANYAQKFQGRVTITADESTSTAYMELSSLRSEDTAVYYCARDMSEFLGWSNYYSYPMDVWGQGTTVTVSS VL: DIQMTQSPSSLSASVGDRVTITCRASQSIEDDLAWYQQKPGKAPKLLIYHASSLQSGVPSRFSGSGSGTDFTLTISSLQPEDFATYYCQQRDNSPYTFGQGTKVEIK	-2.6%
CFP0018 18L 53H (antibody, V domains shown) VH: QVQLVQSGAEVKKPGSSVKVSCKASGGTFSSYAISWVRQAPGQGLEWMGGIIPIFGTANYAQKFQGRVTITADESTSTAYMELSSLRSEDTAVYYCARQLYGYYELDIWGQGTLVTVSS VL: DIQMTQSPSSLSASVGDRVTITCRASQSISDDLAWYQQKPGKAPKLLIYEASHLQSGVPSRFSGSGSGTDFTLTISSLQPEDFATYYCQQYNSYPLTFGQGTKVEIK	94.4%
CFP0021 21L 31A (antibody, V domains shown) VH: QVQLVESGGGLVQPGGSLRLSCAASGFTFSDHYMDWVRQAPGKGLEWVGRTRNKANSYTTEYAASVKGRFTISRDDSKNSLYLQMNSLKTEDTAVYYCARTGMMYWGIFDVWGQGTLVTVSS VL: DIQMTQSPSSLSASVGDRVTITCRASQSIEADLAWYQQKPGKAPKLLIYHASTLQSGVPSRFSGSGSGTDFTLTISSLQPEDFATYYCQQHDSYPLTFGQGTKVEIK	31.2%
CFP0011 11L 96I (antibody, V domains shown) VH: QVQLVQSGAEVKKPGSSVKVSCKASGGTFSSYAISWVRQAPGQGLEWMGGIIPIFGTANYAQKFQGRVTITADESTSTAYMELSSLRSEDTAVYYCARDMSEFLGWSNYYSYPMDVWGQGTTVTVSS VL: DIQMTQSPSSLSASVGDRVTITCRASQSIEDDLAWYQQKPGKAPKLLIYHASSLQSGVPSRFSGSGSGTDFTLTISSLQPEDFATYYCQQSDNSPITFGQGTKVEIK	0.8%
CFP0018 18L 50D (antibody, V domains shown) VH: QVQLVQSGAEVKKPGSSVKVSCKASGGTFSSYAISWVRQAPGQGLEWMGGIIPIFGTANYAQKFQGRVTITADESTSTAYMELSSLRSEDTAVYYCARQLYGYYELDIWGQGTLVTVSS VL: DIQMTQSPSSLSASVGDRVTITCRASQSISDDLAWYQQKPGKAPKLLIYDASSLQSGVPSRFSGSGSGTDFTLTISSLQPEDFATYYCQQYNSYPLTFGQGTKVEIK	22.2%

// below: % binding (parent = 100) requested for another binder
Q: Which % binding (parent = 100) value belongs to CFP0015 (antibody, V domains shown, IgG format) VH: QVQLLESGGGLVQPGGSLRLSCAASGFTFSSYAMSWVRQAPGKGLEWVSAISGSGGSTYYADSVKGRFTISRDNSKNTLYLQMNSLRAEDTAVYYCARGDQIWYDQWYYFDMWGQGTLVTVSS VL: DIQMTQSPSSLSASVGDRVTITCRASQSIEDDLAWYQQKPGKAPKLLIYEASNLQSGVPSRFSGSGSGTDFTLTISSLQPEDFATYYCQQYDSSPLTFGQGTKVEIK ?
Result: 100%
